Origin of measurements: PubChem BioAssay AID1159580

assay: chemical genetic growth profiling, strain panel (AID 1159580);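 further: tested at 20 µM; growth read once vehicle control cultures reached saturation at 30 °C; 1 = growth at the plate median or of vehicle wells; lower values mean less growth of the strain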; details: S. cerevisiae deletion strains, growth OD, locus YCL061C, strain MRC1, active compounds read low
Out of some 5,500 compounds screened, about 2,000 (36%) were called active. Roughly 18% stayed inconclusive and do not appear here. The list shows a part of the results.
Measured normalized growth values are reported for all entries that follow.
Reply: number alone, nothing else.

Consider the reported normalized growth for these compounds:
CN(C)N=Nc1nc[nH]c1C(N)=O: 0.992
CC(CCC(=O)O)[C@H]1CCC2C3C(C[C@H](O)[C@@]21C)[C@@]1(C)CC[C@@H](O)C[C@H]1C[C@H]3O (stereo not given in full): 1.01
CC[C@H](CCC(C)[C@H]1CCC2C3CCC4C[C@@H](O)CC[C@]4(C)C3CC[C@@]21C)C(C)C (stereo not given in full): 0.99
CC(=O)O[C@H]1C[C@@H](OC(C)=O)C(C)(C)C2CC(=O)[C@]3(C)C(CC[C@@]4(C)[C@H](c5ccoc5)OC(=O)[C@H]5O[C@]543)[C@]21C (stereo not given in full): 0.99
CC(=O)Nc1ccccc1: 0.987

I have this compound here, CCCCS(=N)(=O)CCC(N)C(=O)O (stereo not given) , and I need its recorded normalized growth. 0.993

Try Cc1cc(C)cc(OCC2CNC(=O)O2)c1 (stereo not given) next. 0.973

Try "O=C(Nc1ccccc1)NC1CCCC1" next. 1.02

Try NS(=O)(=O)c1cc2c(cc1Cl)NC(C1CC3C=CC1C3)NS2(=O)=O (stereo not given) next. 0.991

Try "Cc1nc2ccccn2c(=O)c1CCN1CCC(C(=O)c2ccc(F)cc2)CC1" next. 1.02

Try "COc1ccc(CNc2ccccc2-c2nc3ccccc3[nH]2)cc1" next. 0.941

Try "C/C=C/C(=O)N(CC)c1ccccc1C" next. 1.01

Try COc1cc(S(C)=O)ccc1-c1nc2ncccc2[nH]1 (stereo not given) next. 0.984

Try "O=C(O)CCCOc1ccc(Cl)cc1Cl" next. 0.938

Try "Cn1nccc1NS(=O)(=O)c1cccc(Cl)c1" next. 1.02

* * *

experiment: chemical genetic growth profiling, strain panel (AID 1159580); settings: S. cerevisiae deletion strains, growth OD, locus YMR129W, active compounds read low
About 2,000 (36%) of roughly 5,500 compounds were called active. Another 18% or so got no clear call; they are omitted. The list shows a part of the results.
Exam item: assign TRUE to entries whose normalized growth is below 1 and FALSE to entries at or above 1. Note that a value of exactly 1 receives FALSE.

Answered cases to consult:
N#C/C(=C\c1cccc(O)c1)C(=O)O: TRUE
O=c1cc(-c2ccc(O)cc2)oc2cc(O)ccc12: TRUE

Continue with the compound presented below.
Here's an entry: CC(CCC(=O)O)[C@H]1CCC2C3CC[C@@H]4C[C@H](O)CC[C@]4(C)C3CC[C@@]21C (stereo not given in full) . Is its normalized growth below 1? FALSE

* * *

assay: chemical genetic growth profiling, strain panel (AID 1159580); settings: S. cerevisiae deletion strains, growth OD, locus YJR075W, strain HOC1, active compounds read low
The whole screen tested about 5,500 compounds, of which about 2,000 (36%) were called active. Roughly 18% stayed inconclusive and do not appear here. This is one part of the list.
Measured normalized growth values are reported for all entries that follow.
Reply: number alone, nothing else.

CC(=O)Nc1ccc(S(=O)(=O)NC2Cc3ccccc3C2)cc1: 0.996
CN(C)CCOC(=O)C(c1ccccc1)C1(O)CCCC1 (stereo unspecified): 1.01
COC(=O)CCCOc1ccc(Cl)cc1Cl: 0.995
O=C(O)Cc1ccccc1I: 0.985
N[C@H](CCCCCP(=O)(O)O)C(=O)O: 1.01
CCN1CCC[C@H]1CNC(=O)c1c(OC)ccc(I)c1O: 0.984
CN[C@@H]1[C@H](OC2[C@H](O[C@H]3[C@H](O)[C@@H](O)[C@H](N=C(N)N)[C@@H](O)[C@@H]3N=C(N)N)O[C@@H](C)[C@]2(O)C=O)O[C@@H](CO)[C@H](O)[C@H]1O (stereo partly specified): 1.01
N[C@@H](Cc1cc(I)c(Oc2ccc(O)c(I)c2)c(I)c1)C(=O)O: 0.996

I have this molecule here, "N[C@@H](Cc1ccc(O)c(I)c1)C(=O)O" , and I need its recorded normalized growth. 0.991

Try "CN(C)CCOC(=O)COc1ccc(Cl)cc1" next. 0.98

Try "COC(=O)COc1ccc(C(C)=O)cc1" next. 0.984

* * *

test: chemical genetic growth profiling, strain panel (AID 1159580); conditions: S. cerevisiae deletion strains, growth OD, locus YEL037C, strain rad23, active compounds read low
About 2,000 (36%) of roughly 5,500 compounds were called active. Inconclusive results (about 18%) are left out. The list shows a part of the results.
parameter.measured: normalized growth
Reply: number alone, nothing else.

Consider the reported normalized growth for these compounds:
COC(=O)CCC(C)[C@H]1CCC2C3C(C[C@H](O)[C@@]21C)[C@@]1(C)CC[C@@H](O)C[C@H]1C[C@H]3O (some centres not stated): 1.01
CC12CC3CC(C)(C1)CC(N)(C3)C2: 0.981
CC(CCC(=O)O)[C@H]1CCC2C3CC[C@@H]4C[C@H](O)CC[C@]4(C)C3CC[C@@]21C (some centres not stated): 0.994
C[C@H](CCC(=O)O)[C@H]1CCC2C3C(CC[C@@]21C)[C@@]1(C)CC[C@@H](O)C[C@H]1C[C@H]3O (some centres not stated): 1.02
CC(CCC(=O)O)[C@H]1CCC2C3C[C@H](O)[C@@H]4C[C@H](O)CC[C@]4(C)C3CC[C@@]21C (some centres not stated): 0.985
CCN(CC)CCOC(=O)C(c1ccccc1)c1ccccc1: 0.973

Moving on to another compound below.
I have this compound here, CC(CCC(=O)O)[C@H]1CCC2C3CC[C@@H]4C[C@H](O)CC[C@]4(C)C3C[C@H](O)[C@@]21C (some centres not stated) , and I need its recorded normalized growth. 0.979

* * *

Measured normalized growth values are reported for all entries that follow.
experiment: chemical genetic growth profiling, strain panel (AID 1159580);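 further: tested at 20 µM; growth read once vehicle control cultures reached saturation at 30 °C; 1 = growth at the plate median or of vehicle wells; lower values mean less growth of the strain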; details: S. cerevisiae deletion strains, growth OD, locus YJL095W, strain BCK1 (second series), active compounds read low
Hit rate of the full screen: of about 5,500 compounds, about 2,000 (36%) were called active. About 18% were inconclusive and are not listed. The list shows a part of the results.

C[C@]12C=CC(=O)C=C1CCC1C3C[C@@H](O)[C@](O)(C(=O)CO)[C@@]3(C)C[C@H](O)[C@@]12F (some centres undefined): 0.995 (inactive)
COc1c(Cl)ccc(Cl)c1C(=O)O: 0.99 (inactive)

Moving on to another compound below.
I have this compound here, NS(=O)(=O)c1cc2c(cc1Cl)NC(C1CC3C=CC1C3)NS2(=O)=O (centres undefined) , and I need its recorded normalized growth. 0.99 (inactive)

* * *

assay: chemical genetic growth profiling, strain panel (AID 1159580);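 further: tested at 20 µM; growth read once vehicle control cultures reached saturation at 30 °C; 1 = growth at the plate median or of vehicle wells; lower values mean less growth of the strain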; conditions: S. cerevisiae deletion strains, growth OD, locus YLL041C, strain sdh2, active compounds read low
Out of some 5,500 compounds screened, about 2,000 (36%) were called active. Roughly 18% stayed inconclusive and do not appear here. The list shows a part of the results.
Exam item: assign 1 to entries whose normalized growth is below 1 and 0 to entries at or above 1. Note that a value of exactly 1 receives 0.

O=C(O)c1ccccc1C(=O)Nc1ccc(S(=O)(=O)Nc2nccs2)cc1: 1

Continue with the compound presented below.
Here's an entry: C[C@H](CCC(=O)O)[C@H]1CCC2C3C(CC[C@@]21C)[C@@]1(C)CC[C@@H](O)C[C@H]1C[C@H]3O (stereo partly specified) . Is its normalized growth below 1? 0

* * *

Measured normalized growth values are reported for all entries that follow.
experiment: chemical genetic growth profiling, strain panel (AID 1159580);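 further: tested at 20 µM; growth read once vehicle control cultures reached saturation at 30 °C; 1 = growth at the plate median or of vehicle wells; lower values mean less growth of the strain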; settings: S. cerevisiae deletion strains, growth OD, locus YOR001W, strain rrp6, active compounds read low
About 2,000 (36%) of roughly 5,500 compounds were called active. Inconclusive results (about 18%) are left out. The list shows a part of the results.
Reply: number alone, nothing else.

I have this compound here, "CCOC(=O)[C@H](CCc1ccccc1)N[C@@H](C)C(=O)N1Cc2ccccc2C[C@H]1C(=O)O" , and I need its recorded normalized growth. 1.01

Try CC(CCC(=O)O)[C@H]1CCC2C3C(C[C@H](O)[C@@]21C)[C@@]1(C)CC[C@@H](O)C[C@H]1C[C@H]3O (some centres not stated) next. 1.02

Try C[C@@H]1CC2C3C[C@H](F)C4=CC(=O)C=C[C@]4(C)[C@@]3(F)[C@@H](O)C[C@]2(C)[C@@]1(O)C(=O)COC(=O)C(C)(C)C (some centres not stated) next. 0.98

Try "Cc1nc2ccccn2c(=O)c1CCN1CCC(C(=O)c2ccc(F)cc2)CC1" next. 1.01
